In this section, each of the molecules is paired with its reported ED50.
System: mice
Assay: Pedestal test: mice staying on the pedestal for more than 1 minute
Type: in vivo
Settings: Mus musculus, ip; intraperitoneal injection; table 1; read-out: ED50 P (pedestal test)
# number only, unit mg/kg dropped from output

Q) Recorded ED50 for CCc1nnc2n1-c1ccc(Cl)cc1C(c1ccccc1)=NC2 , please?
A) 0.9

Q) Data request, read-out ED50, for Cc1nnc2n1-c1ccc(Cl)cc1C(c1ccccc1Cl)=NC2
A) 0.045

###

Tested on: mice
Assay: Nicotine antagonism test (nicotine salicylate 2 mg./kg.)
Assay type: in vivo
Settings: Mus musculus, ip; intraperitoneal injection; table 1; read-out: ED50 Ni (nicotine antagonism (3) test)
recorded metric: ED50 (mg/kg)
Give your result in mg/kg as a bare value.

Look over these answered cases.
{"record smiles": "Cc1nnc2n1-c1ccc(Cl)cc1C(c1c(F)cccc1F)=NC2", "meas value": 0.018}
{"record smiles": "Cc1nnc2n1-c1ccc(Cl)cc1C(c1ccccc1F)=NC2", "meas value": 0.009}
{"record smiles": "CCc1nnc2n1-c1ccc(Cl)cc1C(c1ccccc1)=NC2", "meas value": 0.2}
{"record smiles": "Cc1nnc2n1-c1ccc(C(F)(F)F)cc1C(c1ccccc1)=NC2", "meas value": 0.08}
{"record smiles": "Clc1ccc2c(c1)C(c1ccccc1)=NCc1nncn1-2", "meas value": 0.08}

Now for another entry.
Q) Requested read-out: ED50. Entry: Cc1nnc2n1-c1ccc(Cl)cc1C(c1ccccc1Cl)=NC2
A) 0.008
